Experiment: Metabolic stability in rat liver microsomes assessed as parent compound remaining after 10 mins in presence of NADPH by LC-MS analysis
Format: ADME, Microsome
Conditions: read-out: Stabilty
Reported Property: remaining at 10 min (%)

1. COc1cnc(O[C@@H]2C[C@H]3C(=O)N[C@]4(C(=O)NS(=O)(=O)C5CC5)C[C@H]4/C=C\CC[C@@H](C)C[C@@H](C)[C@H](NC(=O)OC(C)(C)C(F)(F)F)C(=O)N3C2)c2ccccc12
95

---

Collected pEC50 values appear next to each entry.
Assay: Inhibition of recombinant full length NS3/4A protease in Hepatitis C virus subtype 1a replicon infected in human HuH7 cells preincubated for 3 days followed by substrate addition and measured after 2 hrs by renilla luciferase reporter gene assay
Type: cell-based
Settings: Huh-7
pEC50: −log10 of the molar value.
Reported Property: pEC50

1) COc1cnc(O[C@@H]2C[C@H]3C(=O)N[C@]4(C(=O)NS(=O)(=O)C5CC5)C[C@H]4/C=C\CCCC[C@@H](C)[C@H](NC(=O)OC(C)(C)C)C(=O)N3C2)c2cc(Cl)ccc12
9.05
2) COc1cnc(O[C@@H]2C[C@H]3C(=O)N[C@]4(C(=O)NS(=O)(=O)C5CC5)C[C@H]4/C=C\CC[C@@H](C)C[C@@H](C)[C@H](NC(=O)OC(C)(C)C(F)(F)F)C(=O)N3C2)c2ccccc12
9.30
3) C=C[C@@H]1C[C@]1(NC(=O)[C@@H]1C[C@@H](Oc2ncc(OC)c3ccc(Cl)cc23)CN1C(=O)[C@@H](NC(=O)OC(C)(C)C)C(C)(C)C)C(=O)NS(=O)(=O)C1CC1
8.40
4) CC[C@@H]1C[C@H](C)CC/C=C\[C@@H]2C[C@@]2(C(=O)NS(=O)(=O)C2CC2)NC(=O)[C@@H]2C[C@@H](Oc3ncc(OC)c4ccccc34)CN2C(=O)[C@H]1NC(=O)OC(C)(C)C
8.66
5) COc1cnc(O[C@@H]2C[C@H]3C(=O)N[C@]4(C(=O)NS(=O)(=O)C5CC5)C[C@H]4/C=C\CC[C@@H](C)C[C@@H](C)[C@H](NC(=O)OC(C)(C)C)C(=O)N3C2)c2cc(Cl)ccc12
8.92
6) CC[C@@H]1C[C@H](C)CC/C=C\[C@@H]2C[C@@]2(C(=O)NS(=O)(=O)C2CC2)NC(=O)[C@@H]2C[C@@H](Oc3ncc(OC)c4ccccc34)CN2C(=O)[C@H]1NC(=O)OC(C)(C)C(F)(F)F
9.00
7) COc1cnc(O[C@@H]2C[C@H]3C(=O)N[C@]4(C(=O)NS(=O)(=O)C5(C)CC5)C[C@H]4/C=C\CC[C@@H](C)C[C@@H](C)[C@H](NC(=O)OC(C)(C)C(F)(F)F)C(=O)N3C2)c2ccccc12
9.10
8) CC[C@@H]1CCCC/C=C\[C@@H]2C[C@@]2(C(=O)NS(=O)(=O)C2CC2)NC(=O)[C@@H]2C[C@@H](Oc3ncc(OC)c4ccc(Cl)cc34)CN2C(=O)[C@H]1NC(=O)OC(C)(C)C(F)(F)F
9.08
9) CC[C@@H]1C[C@H](C)CC/C=C\[C@@H]2C[C@@]2(C(=O)NS(=O)(=O)C2(C)CC2)NC(=O)[C@@H]2C[C@@H](Oc3nccc4cc(OC)c(F)cc34)CN2C(=O)[C@H]1NC(=O)OC(C)(C)C(F)(F)F
8.55
10) [2H]C([2H])([2H])Oc1cc2ccnc(O[C@@H]3C[C@H]4C(=O)N[C@]5(C(=O)NS(=O)(=O)C6(C)CC6)C[C@H]5/C=C\CC[C@@H](C)C[C@@H](CC)[C@H](NC(=O)OC(C)(C)C(F)(F)F)C(=O)N4C3)c2cc1F
8.64
11) C[C@@H]1CC/C=C\[C@@H]2C[C@@]2(C(=O)NS(=O)(=O)C2CC2)NC(=O)[C@@H]2C[C@@H](Oc3nccc4ccc(F)cc34)CN2C(=O)[C@@H](NC(=O)OC(C)(C)C(F)(F)F)[C@H](C)C1
9.00
12) COc1cnc(O[C@@H]2C[C@H]3C(=O)N[C@]4(C(=O)NS(=O)(=O)C5CC5)C[C@H]4/C=C\CCCC[C@@H](C)[C@H](NC(=O)OC(C)(C)C(F)(F)F)C(=O)N3C2)c2cc(Cl)ccc12
9.22
13) CC[C@@H]1C[C@H](C)CC/C=C\[C@@H]2C[C@@]2(C(=O)NS(=O)(=O)C2(C)CC2)NC(=O)[C@@H]2C[C@@H](Oc3ncc(OC)c4ccc(F)cc34)CN2C(=O)[C@H]1NC(=O)OC(C)(C)C(F)(F)F
8.64
14) CC[C@@H]1C[C@H](C)CC/C=C\[C@@H]2C[C@@]2(C(=O)NS(=O)(=O)C2(C)CC2)NC(=O)[C@@H]2C[C@@H](Oc3ncc(OC)c4ccccc34)CN2C(=O)[C@H]1NC(=O)OC(C)(C)C(F)(F)F
9.10
15) COc1cnc(O[C@@H]2C[C@H]3C(=O)N[C@]4(C(=O)NS(=O)(=O)C5CC5)C[C@H]4/C=C\CCCC[C@@H](C)[C@H](NC(=O)OC(C)(C)C(F)(F)F)C(=O)N3C2)c2ccccc12
9.10
16) [2H]C([2H])([2H])Oc1cnc(O[C@@H]2C[C@H]3C(=O)N[C@]4(C(=O)NS(=O)(=O)C5(C)CC5)C[C@H]4/C=C\CC[C@@H](C)C[C@@H](C)[C@H](NC(=O)OC(C)(C)C(F)(F)F)C(=O)N3C2)c2ccccc12
9.22
17) COc1cnc(O[C@@H]2C[C@H]3C(=O)N[C@]4(C(=O)NS(=O)(=O)C5CC5)C[C@H]4/C=C\CC[C@H](C)C[C@@H](C)[C@H](NC(=O)OC(C)(C)C)C(=O)N3C2)c2cc(Cl)ccc12
8.30
